Each entry below carries its recorded growth inhibition.
- assay_procedure: NCI Yeast Anticancer Drug Screen. Data for the bub3 strain (AID 167)
- condition_description: S. cerevisiae bub3 mutant strain, at 50.0 µM, stronger effect = higher value
- Method: Growth inhibition of yeast strains with defined genetic alterations is measured as a screen for potential anti-cancer activity. Selected strains with alterations in DNA damage repair or cell cycle control were exposed to compounds and growth inhibition was measured relative to vehicle treated controls. The strain used in this assay is bub3
Compounds without any hit were thinned out: in the full panel of roughly 79,000, 15% have a hit.

compound	growth inhibition / %
COc1ccc2[nH]cc(CN(C)C)c2c1	-6.35
N#CCCCCl	29.8
CCOC(=O)NP(=O)(NNc1ccccc1)NNc1ccccc1	98.8
O=c1cccc2n1CC1CNCC2C1 (stereo not given)	15.7
Cc1ccc(OP(=O)(Oc2ccc(C)cc2)Oc2ccc(C)cc2)cc1.Cc1ccc(OP(=O)(Oc2ccc(C)cc2)Oc2ccc(C)cc2)cc1.Cc1ccc(OP(=O)(Oc2ccc(C)cc2)Oc2ccc(C)cc2)cc1.Cc1ccc(OP(=O)(Oc2ccc(C)cc2)Oc2cccc(C)c2)cc1.[Cd+2].[O-][Cl+3]([O-])([O-])O	36.6
CC[N+](C)(CC)CCC(C(=O)NC)(c1ccccc1)c1ccccc1	0.05
[Br][Ni][Br].c1ccc([PH+](CC[PH+](c2ccccc2)c2ccccc2)c2ccccc2)cc1	8.9
O=P(N1CCOCC1)(N1CC1)N1CC1	9
O=c1cc(O)c2ccccc2o1	-10.2
O=C(CCN1CC2CCC(CC2)C1)c1cccs1	-45.8
O=[As](O)(O)c1cc(F)ccc1F	-8
c1ccc(-c2ccc[n+](CCC[n+]3cccc(-c4ccccn4)c3)c2)nc1	-5.75
CC(C)CC(NC(=O)C(Cc1ccccc1)NC(=O)CNC(=O)CNC(=O)C(N)Cc1ccc(O)cc1)C(=O)O (stereo not given)	-0.75
C=C1CCC2CC1C2(C)C (stereo not given) (tested in a mixture with another compound)	5.85
C[N+]1(CC2CC2)C2CC(OC(=O)C(CO)c3ccccc3)CC1C1OC12 (stereo not given)	-0.6
C[N+](C)(C)CC1CCCc2ccccc2C1=O (stereo not given)	88.1
COc1cc([C@@H]2c3cc4c(cc3C[C@H]3COC(=O)[C@@H]32)OCO4)cc(OC)c1OC	24.4
CCC1(CC)C(=O)N(C)P(=O)(Oc2ccccc2)N(C)C1=O	7.1
O=c1oc2cc(O)ccc2c(O)c1C(c1cccnc1)c1c(O)c2ccc(O)cc2oc1=O	-0.5
C=CC(N)=O (tested in a mixture with another compound)	15.8
